Target: human TGR5 (h-TGR5) (Homo sapiens, UniProt Q8TDU6)
Construct: expressed in transfected cells
Experiment: TGR5/CRE-Luciferiase Assay (HEK 293 hTGR5/CRE-Luc cells)
Type: cell-based
Details: h-TGR5 CRE-Luc EC50, Table 1; read-out: CRE-Luc (EC50)
MEASURE NAME: EC50

Worked examples, 3 molecules total:
* COc1c(Cl)cc(C(C)(C)c2cnc(SCc3c(F)cccc3Cl)n2-c2ccc(F)cc2)cc1Cl | < 0.1 µM
* COc1ccc(C(C)(C)c2cnc(C(=O)Nc3ccc(F)c(Cl)c3)n2-c2ccc(F)cc2)cc1OC | 1 to 10 µM
* CC(C)NC(=O)NS(=O)(=O)c1ccc(CSc2ncc(C(C)(C)c3ccc(F)c(C(F)F)c3)n2-c2ccc(F)cc2)c(Cl)c1 | 0.1 to 1 µM

Read the next record carefully.
## Task Fill in reported EC50 for this entry: CC(C)(c1ccc(NS(C)(=O)=O)cc1)c1cnc(SCc2c(F)cccc2Cl)n1-c1ccc(F)cc1
## Result 0.1 to 1 µM

----------
Molecular target: h-TGR5 (Homo sapiens, UniProt Q8TDU6)
Construct: expressed in transfected cells
Assay: TGR5 cAMP Assay using Cisbio cAMP Dynamic2 htrf kit (hTGR5CRE-luc HEK 293 cells)
Type: cell-based
Conditions: h-TGR5 cAMP EC50, Table 1; read-out: cAMP (EC50)
pEC50: −log10 of the molar value.
Listing of entries alongside the reported pEC50.

Worked examples, 3 compounds total:
• COc1cc(-n2c(C(C)(C)c3ccc(Cl)c(Cl)c3)cnc2SCc2ccc(F)cc2Cl)ccc1F = 6.00 to 7.00
• COc1cc(C(C)(C)c2cnc(SCc3c(F)cc(C(=O)O)cc3Cl)n2-c2ccc(F)cc2)ccc1Cl = > 7.00
• CC(C)(c1ccc(S(N)(=O)=O)c(Cl)c1)c1cnc(SCc2ccc(S(=O)(=O)NC(=O)NN3CCOCC3)cc2Cl)n1-c1ccc(F)c(F)c1 = 6.00 to 7.00

## Task Fill in reported pEC50 for this entry: CC(C)(c1ccc(Cl)c(Cl)c1)c1cnc(SCc2c(F)cc(C(=O)NCS(=O)(=O)O)cc2F)n1-c1ccc(F)c(Cl)c1
## Result > 7.00

## Task Fill in reported pEC50 for this entry: Cc1cc(-n2c(C(C)(C)c3ccc(F)cc3)cnc2SCc2ccc(S(=O)(=O)NC(=O)NN3CCCC3)cc2Cl)ccc1F
## Result 6.00 to 7.00

----------
Target: h-TGR5 (Homo sapiens)
Construct: expressed in transfected cells
Test: TGR5 cAMP Assay using Cisbio cAMP Dynamic2 htrf kit (hTGR5CRE-luc HEK 293 cells)
Format: cell-based
Details: h-TGR5 cAMP EC50, Table 1; read-out: cAMP (EC50)
pEC50: −log10 of the molar value.
MEASURE NAME: pEC50

Worked examples, 7 molecules total:
- CC(C)(c1ccc(S(N)(=O)=O)cc1)c1cnc(SCc2ccc(S(=O)(=O)NC(=O)NN3CCOCC3)cc2Cl)n1-c1ccc(F)c(F)c1: 5.00 to 6.00
- COc1cc(C(C)(C)c2cnc(SCc3ccc(S(=O)(=O)NC(=O)Nn4cccc4)cc3Cl)n2-c2ccc(F)cc2)ccc1Cl: 6.00 to 7.00
- COc1cc(-n2c(C(C)(C)c3ccc(Cl)c(Cl)c3)cnc2SCc2c(F)cc(C(=O)NCCS(=O)(=O)O)cc2F)ccc1F: > 7.00
- CC(C)(c1ccc(F)c(F)c1)c1cnc(SCc2c(F)cc(C(=O)O)cc2F)n1-c1ccc(F)cc1: > 7.00
- CC(C)(c1ccc(S(C)(=O)=O)cc1)c1cnc(SCc2c(F)cc(C(=O)O)cc2F)n1-c1ccc(F)cc1: > 7.00
- CC(C)(c1ccc(Cl)c(Cl)c1)c1cnc(SCc2ccc(C(=O)NCCc3c[nH]cn3)cc2F)n1-c1ccc(F)cc1: 6.00 to 7.00
- CC(C)(c1ccc(Cl)c(Cl)c1)c1cnc(CCc2c(F)cc(C(=O)NCCS(=O)(=O)O)cc2Cl)n1-c1ccc(F)cc1: > 7.00

Read the next record carefully.
## Task Fill in reported pEC50 for this entry: CC(C)(c1ccc(Cl)c(Cl)c1)c1cnc(SCc2ccc(F)c(C(=O)O)c2)n1-c1ccc(F)cc1
## Result 6.00 to 7.00

----------
Target: h-TGR5 (Homo sapiens, UniProt Q8TDU6)
Construct: expressed in transfected cells
Test: TGR5 cAMP Assay using Cisbio cAMP Dynamic2 htrf kit (hTGR5CRE-luc HEK 293 cells)
Assay type: cell-based
Settings: h-TGR5 cAMP EC50, Table 1; read-out: cAMP (EC50)
MEASURE NAME: EC50

Worked examples, 3 compounds total:
* CC(C)(c1ccc(Cl)c(Cl)c1)c1cnc(SCc2ccc(OCCO)c(S(N)(=O)=O)c2)n1-c1ccc(F)cc1 | 100 to 1000 nM
* COc1ccc(C(C)(C)c2cnc(SCc3c(Cl)cccc3Cl)n2-c2ccc(F)cc2)cc1OC | < 100 nM
* COc1cc(-n2c(C(C)(C)c3cccc(S(C)(=O)=O)c3)cnc2SCc2c(F)cc(C(=O)O)cc2F)ccc1F | 100 to 1000 nM

## Task Fill in reported EC50 for this entry: COc1cc(C(C)(C)c2cnc(SCc3c(F)cc(C(=O)NC(CCCCNC(=N)N)C(=O)O)cc3Cl)n2-c2ccc(F)cc2)ccc1Cl (stereo not shown)
## Result < 100 nM

## Task Fill in reported EC50 for this entry: COc1ccc(C(C)(C)c2cnc(SCc3ccc(F)c(C(N)=O)c3)n2-c2ccc(F)cc2)cc1OC
## Result < 100 nM

## Task Fill in reported EC50 for this entry: CC(C)(c1ccc(F)c(F)c1)c1cnc(SCC2CCN(C(=O)NN3CCCC3)CC2)n1-c1ccc(F)cc1
## Result 100 to 1000 nM

----------
Target: human TGR5 (h-TGR5) (Homo sapiens)
Construct: expressed in transfected cells
Sequence (Q8TDU6 1-330): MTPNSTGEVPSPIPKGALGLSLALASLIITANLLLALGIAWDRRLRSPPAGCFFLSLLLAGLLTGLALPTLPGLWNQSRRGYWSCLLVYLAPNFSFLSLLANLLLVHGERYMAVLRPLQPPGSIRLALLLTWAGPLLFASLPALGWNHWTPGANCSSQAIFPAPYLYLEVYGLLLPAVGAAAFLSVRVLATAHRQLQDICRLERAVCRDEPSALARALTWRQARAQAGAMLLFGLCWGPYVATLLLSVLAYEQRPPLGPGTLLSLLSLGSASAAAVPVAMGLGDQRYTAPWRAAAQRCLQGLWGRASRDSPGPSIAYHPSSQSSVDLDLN
Experiment: TGR5/CRE-Luciferiase Assay (HEK 293 hTGR5/CRE-Luc cells)
Type: cell-based
Conditions: h-TGR5 CRE-Luc EC50, Table 1; read-out: CRE-Luc (EC50)
pEC50: −log10 of the molar value.
MEASURE NAME: pEC50

Worked examples, 2 molecules total:
* COc1cc(-n2c(C(C)(C)c3ccc(S(N)(=O)=O)c(Cl)c3)cnc2SCc2c(F)cc(C(=O)NC(CCCNC(=N)N)C(=O)O)cc2Cl)ccc1F (stereo not shown) | > 7.00
* COc1cc(C(C)(C)c2cnc(SCc3c(F)cc(C(=O)NCCS(=O)(=O)O)cc3F)n2-c2ccc(F)cc2)ccc1Cl | > 7.00

## Task Fill in reported pEC50 for this entry: CC1CCc2cc(F)ccc2N1S(=O)(=O)c1ncc(C(C)(C)c2ccc(Cl)c(Cl)c2)n1-c1ccc(F)cc1 (stereo not shown)
## Result 5.00 to 6.00

## Task Fill in reported pEC50 for this entry: CC(=O)COc1ccc(CSc2ncc(C(C)(C)c3ccc(Cl)c(Cl)c3)n2-c2ccc(F)cc2)cc1S(N)(=O)=O
## Result > 7.00

----------
Listing of entries alongside the reported EC50.
Biological target: human TGR5 (h-TGR5) (Homo sapiens, UniProt Q8TDU6)
Construct: expressed in transfected cells
Assay: TGR5/CRE-Luciferiase Assay (HEK 293 hTGR5/CRE-Luc cells)
Type: cell-based
Settings: h-TGR5 CRE-Luc EC50, Table 1; read-out: CRE-Luc (EC50)

• CC(C)(c1ccc(Cl)c(Cl)c1)c1cnc(SCc2c(F)cccc2Cl)n1C1CCCC1 = 1000 to 10000 nM

## Task Fill in reported EC50 for this entry: CC(C)(c1ccc(Cl)c(Cl)c1)c1cnc(SCc2ccc(F)c(-c3nnn[nH]3)c2)n1-c1ccc(F)cc1
## Result 100 to 1000 nM

## Task Fill in reported EC50 for this entry: COc1cc(-n2c(C(C)(C)c3ccc(S(N)(=O)=O)c(Cl)c3)cnc2SCc2ccc(C(=O)NCCC(=O)O)cc2F)ccc1F
## Result < 100 nM

## Task Fill in reported EC50 for this entry: COc1cc(-n2c(C(C)(C)c3ccc(S(N)(=O)=O)c(Cl)c3)cnc2SCc2c(F)cc(C(=O)NCCS(=O)(=O)O)cc2F)ccc1F
## Result < 100 nM

## Task Fill in reported EC50 for this entry: CC(C)(c1ccc(Cl)c(Cl)c1)c1cnc(COc2ccc(C(N)=O)c(Cl)c2)n1-c1ccc(F)cc1
## Result 1000 to 10000 nM

## Task Fill in reported EC50 for this entry: COc1cc(C(C)(C)c2cnc(SCc3c(F)cc(S(=O)(=O)NCCS(=O)(=O)O)cc3F)n2-c2ccc(F)cc2)ccc1Cl
## Result < 100 nM

## Task Fill in reported EC50 for this entry: CC(C)(c1ccc(OCC(=O)O)c(Cl)c1)c1cnc(SCc2ccc(F)cc2Cl)n1-c1ccc(F)cc1
## Result 1000 to 10000 nM

## Task Fill in reported EC50 for this entry: COc1ccc(C(C)(C)c2cnc(CNc3ccc(F)cc3Cl)n2-c2ccc(F)cc2)cc1OC
## Result < 100 nM

src = patent US8785488B2
